Just for reference, PubChem BioAssay AID1996 is where these values come from.

details: buffer; pH 7.4; 200.0 µM
quantity_measured: solubility kinetic

Exercise: # query: solubility kinetic of entry Cc1cccc(C(=O)OCC(=O)N2CC(C)CC(C)C2)c1C (stereo not drawn)
Key: > 45.5 µg/mL

Exercise: Can you look up the measured solubility kinetic of CC(C)[C@H](NC(=O)c1ccccc1)C(=O)OCC(=O)NCc1ccc2c(c1)OCO2 for me?
Key: > 61.9 µg/mL

Exercise: Recorded solubility kinetic of CC(=O)Nc1cccc(OCCCNS(=O)(=O)c2ccc(C#N)cc2)c1 , please.
Key: > 56 µg/mL

Next:
Exercise: Need solubility kinetic of CC(=O)c1ccc(NC(=O)CN2C(=O)NC3(CCc4ccccc43)C2=O)cc1 (stereo not drawn) , thanks.
Key: > 56.6 µg/mL

Exercise: Form field: reported solubility kinetic of COc1ccc(C(=O)Nc2ccc(C(=O)c3ccccc3)cc2)cc1
Key: < 0.7 µg/mL

Exercise: Give its solubility kinetic value. Item: Cl.N[C@@H](CCl)C(=O)O
Key: > 24 µg/mL

Exercise: // query solubility kinetic value for entry O=C(COC(=O)c1ccccc1F)NC1CC1
Key: > 35.6 µg/mL

Exercise: Requested read-out: solubility kinetic. Entry: O=C(COc1ccc(F)cc1F)N1CCCCCCC1
Key: > 42.5 µg/mL

Exercise: If you can, please state the reported solubility kinetic value of O=C(O)/C=C\C(=O)Nc1cc(O)ccc1[N+](=O)[O-] .
Key: > 37.8 µg/mL

Exercise: Looking for the measured solubility kinetic of C/C(=N\NC(=O)c1cccnc1)c1ccccc1 , can you help?
Key: > 35.9 µg/mL

Exercise: Could you share which solubility kinetic value was measured for CN1CCC(N(C)S(=O)(=O)c2ccc(NC(=O)c3ccc(S(=O)(=O)N(C)C)cc3)cc2)CC1 ?
Key: > 74.2 µg/mL

Exercise: Look at this compound and give its reported solubility kinetic. COc1ccc(NC(=O)NCc2cccnc2)cc1
Key: > 38.6 µg/mL

Exercise: Entry Cc1ccccc1NC(=O)C[n+]1cc(-c2ccccc2)n2c1CCC2.[Cl-] : reported solubility kinetic = ?
Key: > 55.2 µg/mL

Exercise: Given Cc1ccccc1NC(=O)c1cccc(NC(=O)c2ccco2)c1 , state its recorded solubility kinetic.
Key: > 48.1 µg/mL
